targetOfAssay: FER (human) (UniProt P16591)
Sequence (P16591 whole entry, looked up): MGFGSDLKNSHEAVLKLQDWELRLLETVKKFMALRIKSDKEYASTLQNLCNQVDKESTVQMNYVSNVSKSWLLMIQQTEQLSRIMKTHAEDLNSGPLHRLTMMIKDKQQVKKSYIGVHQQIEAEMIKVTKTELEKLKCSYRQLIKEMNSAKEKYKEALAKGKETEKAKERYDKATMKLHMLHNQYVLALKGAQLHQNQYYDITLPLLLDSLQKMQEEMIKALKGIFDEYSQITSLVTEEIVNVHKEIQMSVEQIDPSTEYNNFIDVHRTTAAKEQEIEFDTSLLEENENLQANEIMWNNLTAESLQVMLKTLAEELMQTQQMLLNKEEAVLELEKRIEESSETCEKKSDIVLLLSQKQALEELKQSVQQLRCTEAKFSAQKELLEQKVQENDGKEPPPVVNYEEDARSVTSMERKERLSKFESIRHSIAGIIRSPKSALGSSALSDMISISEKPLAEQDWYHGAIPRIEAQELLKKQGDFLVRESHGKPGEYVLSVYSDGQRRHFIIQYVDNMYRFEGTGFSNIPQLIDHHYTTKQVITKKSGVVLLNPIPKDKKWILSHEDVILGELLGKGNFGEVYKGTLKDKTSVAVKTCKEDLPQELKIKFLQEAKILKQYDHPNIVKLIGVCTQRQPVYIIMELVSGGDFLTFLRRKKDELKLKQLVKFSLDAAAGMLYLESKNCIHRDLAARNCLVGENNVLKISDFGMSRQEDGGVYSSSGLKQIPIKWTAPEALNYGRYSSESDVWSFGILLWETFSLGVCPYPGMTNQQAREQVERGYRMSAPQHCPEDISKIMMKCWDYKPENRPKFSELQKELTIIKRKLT
procedureDetails: Caliper, Mobility shift assay off-chip
measurementParameters: compound 0.2 µM
measuredQuantity: inhibition (%)

| compoundString | targetOfAssay | reading |
| --- | --- | --- |
| COc1cc2c(Oc3ccc4[nH]c(C)cc4c3F)ncnc2cc1OCCCN1CCCC1 | FER (human) (UniProt P16591) | 11.2 |

1 = CCN(CC)CCNC(=O)c1c(C)[nH]c(/C=C2\C(=O)Nc3ccc(F)cc32)c1C
2 = Cc1ccc(Nc2nccc(N(C)c3ccc4c(C)n(C)nc4c3)n2)cc1S(N)(=O)=O
3 = CNC(=O)c1cc(Oc2ccc(NC(=O)Nc3ccc(Cl)c(C(F)(F)F)c3)cc2)ccn1
Order the records by inhibition, with each subsequent value no larger than the one before. Use the labels to give the requested order. 1, 2, 3
(1: 78.8%, 2: 40.1%, 3: 13.2%)

----------
targetOfAssay: WNK2 (human) (UniProt Q9Y3S1)
procedureDetails: Caliper, Mobility shift assay off-chip
measurementParameters: compound 0.02 µM
measuredQuantity: inhibition (%)

Here's what some known entries look like.
| compoundString | reading |
| --- | --- |
| Cc1ccc(Nc2nccc(N(C)c3ccc4c(C)n(C)nc4c3)n2)cc1S(N)(=O)=O | 1 |
| CNC(=O)c1cc(Oc2ccc(NC(=O)Nc3ccc(Cl)c(C(F)(F)F)c3)cc2)ccn1 | -8.6 |

P = COc1cc2c(Oc3ccc4[nH]c(C)cc4c3F)ncnc2cc1OCCCN1CCCC1
Q = CNC(=O)c1ccccc1Sc1ccc2c(/C=C/c3ccccn3)n[nH]c2c1
So which one has the bigger inhibition here, P or Q ? Answer format: the label of the selected item. P
(P: 3.8%, Q: -0.3%)

----------
targetOfAssay: TNK1 (human) (UniProt Q13470)
Sequence (Q13470 whole entry, looked up): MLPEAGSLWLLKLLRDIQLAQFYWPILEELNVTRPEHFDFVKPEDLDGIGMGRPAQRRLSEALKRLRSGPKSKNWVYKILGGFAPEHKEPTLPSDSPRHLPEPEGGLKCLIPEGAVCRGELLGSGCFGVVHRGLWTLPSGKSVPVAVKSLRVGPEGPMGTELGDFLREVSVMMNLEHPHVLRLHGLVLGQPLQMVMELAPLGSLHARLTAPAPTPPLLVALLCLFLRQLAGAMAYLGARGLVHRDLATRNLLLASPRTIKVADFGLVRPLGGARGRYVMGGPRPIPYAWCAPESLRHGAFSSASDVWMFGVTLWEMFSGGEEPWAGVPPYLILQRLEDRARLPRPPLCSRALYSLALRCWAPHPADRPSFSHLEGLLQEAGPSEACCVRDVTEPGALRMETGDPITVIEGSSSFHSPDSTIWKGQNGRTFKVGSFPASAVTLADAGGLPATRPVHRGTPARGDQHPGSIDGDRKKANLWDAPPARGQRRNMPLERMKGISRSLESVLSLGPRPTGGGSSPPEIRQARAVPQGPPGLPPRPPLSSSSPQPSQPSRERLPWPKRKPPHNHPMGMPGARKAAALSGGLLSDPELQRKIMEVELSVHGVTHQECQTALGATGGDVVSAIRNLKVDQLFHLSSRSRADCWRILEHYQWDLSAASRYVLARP
procedureDetails: Caliper, Mobility shift assay off-chip
measurementParameters: compound 0.02 µM
measuredQuantity: inhibition (%)

| compoundString | measuredQuantity | reading |
| --- | --- | --- |
| CNC(=O)c1cc(Oc2ccc(NC(=O)Nc3ccc(Cl)c(C(F)(F)F)c3)cc2)ccn1 | inhibition | -0.4 |

A = COc1cc2c(Oc3ccc4[nH]c(C)cc4c3F)ncnc2cc1OCCCN1CCCC1
B = CNC(=O)c1ccccc1Sc1ccc2c(/C=C/c3ccccn3)n[nH]c2c1
So which one has the bigger inhibition here, A or B ? Answer format: the label of the selected item. B

----------
targetOfAssay: FLT1 (human)
procedureDetails: Caliper, Mobility shift assay off-chip
measurementParameters: compound 0.2 µM
measuredQuantity: inhibition (%)

| compoundString | targetOfAssay | reading |
| --- | --- | --- |
| Cc1ccc(Nc2nccc(N(C)c3ccc4c(C)n(C)nc4c3)n2)cc1S(N)(=O)=O | FLT1 (human) | 99.8 |
| CCN(CC)CCNC(=O)c1c(C)[nH]c(/C=C2\C(=O)Nc3ccc(F)cc32)c1C | FLT1 (human) | 90.4 |
| COc1cc2c(Oc3ccc4[nH]c(C)cc4c3F)ncnc2cc1OCCCN1CCCC1 | FLT1 (human) | 102 |
| CNC(=O)c1cc(Oc2ccc(NC(=O)Nc3ccc(Cl)c(C(F)(F)F)c3)cc2)ccn1 | FLT1 (human) | 99.6 |

----------
targetOfAssay: PDGFRA (human) (UniProt P16234)
measuredQuantity: pKi
Just the number, please; pKi means minus log10 of the concentration in mol/L.

Request the reported pKi associated with `Cc1ccc(F)c(NC(=O)Nc2ccc(-c3cccc4[nH]nc(N)c34)cc2)c1` 8.56

----------
targetOfAssay: UniProt:P04049
Sequence (P04049 whole entry, looked up): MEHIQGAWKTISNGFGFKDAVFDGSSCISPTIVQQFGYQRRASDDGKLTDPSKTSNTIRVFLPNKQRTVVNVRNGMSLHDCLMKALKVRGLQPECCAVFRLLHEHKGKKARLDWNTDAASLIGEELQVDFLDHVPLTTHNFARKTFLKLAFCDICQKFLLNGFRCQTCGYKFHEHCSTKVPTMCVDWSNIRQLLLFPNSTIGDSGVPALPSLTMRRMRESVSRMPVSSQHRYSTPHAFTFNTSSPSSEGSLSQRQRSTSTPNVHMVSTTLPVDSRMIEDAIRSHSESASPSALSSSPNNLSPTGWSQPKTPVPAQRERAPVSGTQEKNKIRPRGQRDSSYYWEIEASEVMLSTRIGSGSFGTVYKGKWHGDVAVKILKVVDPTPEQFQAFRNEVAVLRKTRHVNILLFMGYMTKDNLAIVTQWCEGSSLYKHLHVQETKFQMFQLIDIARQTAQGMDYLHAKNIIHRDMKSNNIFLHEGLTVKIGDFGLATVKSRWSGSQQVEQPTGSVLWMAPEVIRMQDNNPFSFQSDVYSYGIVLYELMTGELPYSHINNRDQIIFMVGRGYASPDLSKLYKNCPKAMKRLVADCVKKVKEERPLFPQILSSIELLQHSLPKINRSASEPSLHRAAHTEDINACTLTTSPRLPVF
measuredQuantity: Ki (µM)
Report only the number, with the unit µM understood.

Entry `Cc1ccc(F)c(NC(=O)Nc2ccc(-c3cccc4[nH]nc(N)c34)cc2)c1` , system UniProt:P04049: what Ki was measured? 5

----------
targetOfAssay: RPS6KA5 KD1 KD2 (human) (UniProt O75582)
Sequence (O75582 whole entry, looked up): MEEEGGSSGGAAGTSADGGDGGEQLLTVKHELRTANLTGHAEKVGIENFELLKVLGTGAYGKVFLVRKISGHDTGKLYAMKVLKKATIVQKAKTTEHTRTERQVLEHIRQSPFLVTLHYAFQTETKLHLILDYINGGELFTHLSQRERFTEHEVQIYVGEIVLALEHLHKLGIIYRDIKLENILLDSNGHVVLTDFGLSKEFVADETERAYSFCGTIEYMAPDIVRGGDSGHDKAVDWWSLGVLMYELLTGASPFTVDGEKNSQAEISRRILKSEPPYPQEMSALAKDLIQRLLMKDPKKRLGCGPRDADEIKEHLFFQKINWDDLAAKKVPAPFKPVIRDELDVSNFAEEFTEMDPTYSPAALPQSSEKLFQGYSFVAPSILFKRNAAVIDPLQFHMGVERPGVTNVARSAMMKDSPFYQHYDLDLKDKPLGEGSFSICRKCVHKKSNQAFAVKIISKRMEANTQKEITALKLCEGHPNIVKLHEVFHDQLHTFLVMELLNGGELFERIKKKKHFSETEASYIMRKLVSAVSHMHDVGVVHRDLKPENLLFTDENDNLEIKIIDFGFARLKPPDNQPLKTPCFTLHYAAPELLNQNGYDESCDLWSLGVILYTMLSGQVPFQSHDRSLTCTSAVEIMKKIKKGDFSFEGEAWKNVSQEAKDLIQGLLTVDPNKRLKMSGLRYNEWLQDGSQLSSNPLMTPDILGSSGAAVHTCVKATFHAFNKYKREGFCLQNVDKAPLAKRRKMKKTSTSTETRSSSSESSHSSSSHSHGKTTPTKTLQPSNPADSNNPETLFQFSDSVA
procedureDetails: Caliper, Mobility shift assay off-chip
measurementParameters: compound 0.02 µM
measuredQuantity: inhibition (%)

| compoundString | inhibition / % |
| --- | --- |
| CNC(=O)c1ccccc1Sc1ccc2c(/C=C/c3ccccn3)n[nH]c2c1 | -7.1 |
| Cc1ccc(Nc2nccc(N(C)c3ccc4c(C)n(C)nc4c3)n2)cc1S(N)(=O)=O | -4.7 |

P = COc1cc2c(Oc3ccc4[nH]c(C)cc4c3F)ncnc2cc1OCCCN1CCCC1
Q = CNC(=O)c1cc(Oc2ccc(NC(=O)Nc3ccc(Cl)c(C(F)(F)F)c3)cc2)ccn1
Sorting ascending by inhibition, which comes first: P or Q ? Answer format: the label of the selected item. P

----------
targetOfAssay: EPHA8 (human) (UniProt P29322)
Sequence (P29322 whole entry, looked up): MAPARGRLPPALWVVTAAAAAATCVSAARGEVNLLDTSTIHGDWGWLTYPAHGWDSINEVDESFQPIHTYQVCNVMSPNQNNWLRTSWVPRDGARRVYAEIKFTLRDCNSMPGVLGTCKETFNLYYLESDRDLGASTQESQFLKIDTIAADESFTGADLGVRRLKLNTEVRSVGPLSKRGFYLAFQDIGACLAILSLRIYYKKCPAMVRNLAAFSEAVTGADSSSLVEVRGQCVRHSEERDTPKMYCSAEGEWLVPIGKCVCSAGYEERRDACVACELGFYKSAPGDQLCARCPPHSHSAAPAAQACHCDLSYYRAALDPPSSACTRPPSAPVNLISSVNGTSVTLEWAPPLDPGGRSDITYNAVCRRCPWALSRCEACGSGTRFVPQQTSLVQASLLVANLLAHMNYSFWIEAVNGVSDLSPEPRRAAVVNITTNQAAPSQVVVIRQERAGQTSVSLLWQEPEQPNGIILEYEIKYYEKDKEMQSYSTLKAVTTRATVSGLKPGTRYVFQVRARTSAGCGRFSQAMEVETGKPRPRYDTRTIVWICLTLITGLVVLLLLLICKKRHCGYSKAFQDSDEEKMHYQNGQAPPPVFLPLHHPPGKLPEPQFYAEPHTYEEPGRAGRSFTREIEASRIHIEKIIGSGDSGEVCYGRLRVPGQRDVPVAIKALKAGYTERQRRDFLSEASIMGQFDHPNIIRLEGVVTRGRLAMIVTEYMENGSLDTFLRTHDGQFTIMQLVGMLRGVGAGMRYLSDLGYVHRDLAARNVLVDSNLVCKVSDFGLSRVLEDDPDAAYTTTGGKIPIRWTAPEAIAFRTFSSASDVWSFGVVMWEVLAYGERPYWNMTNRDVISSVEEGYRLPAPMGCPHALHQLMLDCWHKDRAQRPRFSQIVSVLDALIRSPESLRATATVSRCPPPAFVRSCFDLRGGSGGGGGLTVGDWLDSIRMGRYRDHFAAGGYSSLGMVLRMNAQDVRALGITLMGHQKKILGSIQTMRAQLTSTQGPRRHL
procedureDetails: Caliper, Mobility shift assay off-chip
measurementParameters: compound 0.02 µM
measuredQuantity: inhibition (%)

| compoundString | inhibition, % |
| --- | --- |
| CNC(=O)c1ccccc1Sc1ccc2c(/C=C/c3ccccn3)n[nH]c2c1 | -4.7 |

a = Cc1ccc(Nc2nccc(N(C)c3ccc4c(C)n(C)nc4c3)n2)cc1S(N)(=O)=O
b = CNC(=O)c1cc(Oc2ccc(NC(=O)Nc3ccc(Cl)c(C(F)(F)F)c3)cc2)ccn1
c = COc1cc2c(Oc3ccc4[nH]c(C)cc4c3F)ncnc2cc1OCCCN1CCCC1
Rank the items in ascending order with respect to inhibition. Use the labels to give the requested order. c, a, b

----------
targetOfAssay: STK38 (human)
procedureDetails: Caliper, Mobility shift assay off-chip
measurementParameters: compound 0.2 µM
measuredQuantity: inhibition (%)

Here's what some known entries look like.
| compoundString | inhibition (%) |
| --- | --- |
| Cc1ccc(Nc2nccc(N(C)c3ccc4c(C)n(C)nc4c3)n2)cc1S(N)(=O)=O | 7.5 |
| COc1cc2c(Oc3ccc4[nH]c(C)cc4c3F)ncnc2cc1OCCCN1CCCC1 | -1.9 |

A = CCN(CC)CCNC(=O)c1c(C)[nH]c(/C=C2\C(=O)Nc3ccc(F)cc32)c1C
B = CNC(=O)c1cc(Oc2ccc(NC(=O)Nc3ccc(Cl)c(C(F)(F)F)c3)cc2)ccn1
Sorting ascending by inhibition, which comes first: A or B ? Answer format: the label of the selected item. B

----------
targetOfAssay: PIM1 (human) (UniProt P11309)
Sequence (P11309 whole entry, looked up): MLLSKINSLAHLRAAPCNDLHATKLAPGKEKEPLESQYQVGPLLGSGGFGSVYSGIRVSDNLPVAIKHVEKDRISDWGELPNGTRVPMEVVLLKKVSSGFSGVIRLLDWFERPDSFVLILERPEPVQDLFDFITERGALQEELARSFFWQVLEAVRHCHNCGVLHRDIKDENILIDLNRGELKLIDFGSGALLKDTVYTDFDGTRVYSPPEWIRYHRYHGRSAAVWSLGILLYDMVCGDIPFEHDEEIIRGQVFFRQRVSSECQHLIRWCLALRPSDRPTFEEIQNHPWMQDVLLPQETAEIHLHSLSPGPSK
procedureDetails: Caliper, Mobility shift assay off-chip
measurementParameters: compound 0.2 µM
measuredQuantity: inhibition (%)

P = COc1cc2c(Oc3ccc4[nH]c(C)cc4c3F)ncnc2cc1OCCCN1CCCC1
Q = CNC(=O)c1cc(Oc2ccc(NC(=O)Nc3ccc(Cl)c(C(F)(F)F)c3)cc2)ccn1
So which one has the bigger inhibition here, P or Q ? Answer format: the label of the selected item. Q
(Q: -3.6%, P: -8.3%)

I = CCN(CC)CCNC(=O)c1c(C)[nH]c(/C=C2\C(=O)Nc3ccc(F)cc32)c1C
II = Cc1ccc(Nc2nccc(N(C)c3ccc4c(C)n(C)nc4c3)n2)cc1S(N)(=O)=O
So which one has the bigger inhibition here, I or II ? Answer format: the label of the selected item. II

----------
targetOfAssay: MAP4K2 (human) (UniProt Q12851)
procedureDetails: Caliper, Mobility shift assay off-chip
measurementParameters: compound 0.02 µM
measuredQuantity: inhibition (%)

Here's what some known entries look like.
| compoundString | inhibition, % |
| --- | --- |
| CNC(=O)c1cc(Oc2ccc(NC(=O)Nc3ccc(Cl)c(C(F)(F)F)c3)cc2)ccn1 | 3.2 |
| COc1cc2c(Oc3ccc4[nH]c(C)cc4c3F)ncnc2cc1OCCCN1CCCC1 | 2.6 |

A = Cc1ccc(Nc2nccc(N(C)c3ccc4c(C)n(C)nc4c3)n2)cc1S(N)(=O)=O
B = CNC(=O)c1ccccc1Sc1ccc2c(/C=C/c3ccccn3)n[nH]c2c1
Sorting ascending by inhibition, which comes first: A or B ? Answer format: the label of the selected item. A
(A: 2.6%, B: 4.8%)

----------
targetOfAssay: BTK (human) (UniProt Q06187)
Sequence (Q06187 whole entry, looked up): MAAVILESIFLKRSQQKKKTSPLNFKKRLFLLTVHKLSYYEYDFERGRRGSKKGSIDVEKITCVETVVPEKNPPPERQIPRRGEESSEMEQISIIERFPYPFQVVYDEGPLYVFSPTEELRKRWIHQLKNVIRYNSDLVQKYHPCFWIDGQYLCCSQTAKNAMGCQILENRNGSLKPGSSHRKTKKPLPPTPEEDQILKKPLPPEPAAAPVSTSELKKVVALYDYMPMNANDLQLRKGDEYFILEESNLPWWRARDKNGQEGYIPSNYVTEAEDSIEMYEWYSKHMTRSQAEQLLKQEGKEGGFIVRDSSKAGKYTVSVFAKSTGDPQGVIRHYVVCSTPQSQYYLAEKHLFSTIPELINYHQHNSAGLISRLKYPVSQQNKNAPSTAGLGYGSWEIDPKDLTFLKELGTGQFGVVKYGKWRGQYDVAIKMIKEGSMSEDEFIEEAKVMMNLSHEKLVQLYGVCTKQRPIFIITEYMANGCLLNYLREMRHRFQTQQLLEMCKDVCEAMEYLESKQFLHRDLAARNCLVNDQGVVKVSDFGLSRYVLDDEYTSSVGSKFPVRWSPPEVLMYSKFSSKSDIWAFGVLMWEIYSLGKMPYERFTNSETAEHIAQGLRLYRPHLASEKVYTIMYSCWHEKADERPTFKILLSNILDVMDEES
procedureDetails: Caliper, Mobility shift assay off-chip
measurementParameters: compound 0.2 µM
measuredQuantity: inhibition (%)

Here's what some known entries look like.
| compoundString | targetOfAssay | inhibition [%] |
| --- | --- | --- |
| CCN(CC)CCNC(=O)c1c(C)[nH]c(/C=C2\C(=O)Nc3ccc(F)cc32)c1C | BTK (human) (UniProt Q06187) | 2.7 |
| CNC(=O)c1cc(Oc2ccc(NC(=O)Nc3ccc(Cl)c(C(F)(F)F)c3)cc2)ccn1 | BTK (human) (UniProt Q06187) | 14.6 |

1 = Cc1ccc(Nc2nccc(N(C)c3ccc4c(C)n(C)nc4c3)n2)cc1S(N)(=O)=O
2 = COc1cc2c(Oc3ccc4[nH]c(C)cc4c3F)ncnc2cc1OCCCN1CCCC1
So which one has the bigger inhibition here, 1 or 2 ? Answer format: the label of the selected item. 2

----------
targetOfAssay: MAP3K3 (human)
procedureDetails: ELISA
measurementParameters: compound 0.2 µM
measuredQuantity: inhibition (%)

I = CCN(CC)CCNC(=O)c1c(C)[nH]c(/C=C2\C(=O)Nc3ccc(F)cc32)c1C
II = COc1cc2c(Oc3ccc4[nH]c(C)cc4c3F)ncnc2cc1OCCCN1CCCC1
Sorting ascending by inhibition, which comes first: I or II ? Answer format: the label of the selected item. II

P = CNC(=O)c1cc(Oc2ccc(NC(=O)Nc3ccc(Cl)c(C(F)(F)F)c3)cc2)ccn1
Q = Cc1ccc(Nc2nccc(N(C)c3ccc4c(C)n(C)nc4c3)n2)cc1S(N)(=O)=O
So which one has the bigger inhibition here, P or Q ? Answer format: the label of the selected item. Q

The values you see were collected from the kinase profiling compilation of Christmann-Franck et al. (2016).
